Tested on: TS1(SW) T cell receptor
Experiment: Proliferation of TS1(SW) CD4+ T cells in response to graded doses of peptide
Type: cell-based, mouse
Conditions: read-out: half maximal stimulation
readout_type: EC50

Consider SFERFEIFPKE [S1 peptide] . Its measured EC50 is > 1 µM

Every entry's value here was drawn from patent US20060156419A1.
